- System: Caenorhabditis elegans N2
- ASSAY_NOTES: lowest effective concentration for larval growth inhibition (size below effect threshold); higher = less potent
- SETUP_CONDITIONS: exposure time 48 h
Listing of entries alongside the reported lowest effective concentration.

COMPOUND	TEST_TARGET	READOUT_QUALIFIER	lowest effective concentration / µM
NC(=O)N1c2ccccc2C=Cc2ccccc21 [Carbamazepine]	Caenorhabditis elegans N2	>	200
CNC(C)=O [N-Methylacetamide]	Caenorhabditis elegans N2	>	200
Cc1ccc([N+](=O)[O-])cc1C	Caenorhabditis elegans N2	>	200
CCCCC(CC)COC(=O)c1ccc(C(=O)OCC(CC)CCCC)c(C(=O)OCC(CC)CCCC)c1 (stereo not given) [Tris(2-ethylhexyl)trimellitate]	Caenorhabditis elegans N2	=	200
C=CCc1ccc(O)c(OC)c1	Caenorhabditis elegans N2	>	200
Clc1ccccc1C(c1ccccc1)(c1ccccc1)n1ccnc1	Caenorhabditis elegans N2	=	5
Oc1cc(Cl)c(Cl)cc1Cl	Caenorhabditis elegans N2	>	200
CC(C)=CCC/C(C)=C\CO [cis-3,7-Dimethyl-2,6-octadien-1-ol]	Caenorhabditis elegans N2	=	200
COc1ccc(C)cc1N	Caenorhabditis elegans N2	>	200
CCOC(=O)c1ccc(C2CCC(NC[C@H](O)COc3ccc(O)c(NS(C)(=O)=O)c3)CC2)cc1 (stereo not given in full)	Caenorhabditis elegans N2	=	100
COC(=O)CCCCC(=O)OC [Dimethyl adipate]	Caenorhabditis elegans N2	=	200
Cc1nc(N(C)C)nc(OC(=O)N(C)C)c1C	Caenorhabditis elegans N2	>	200
COCC(C)OCC(C)O (stereo not given)	Caenorhabditis elegans N2	=	200
CCOC(=O)C(C)Oc1ccc(Oc2cnc3cc(Cl)ccc3n2)cc1 (stereo not given)	Caenorhabditis elegans N2	=	50
O=C(O)c1cccc(C(=O)O)c1	Caenorhabditis elegans N2	=	200
O=C(OCCOCCOC(=O)c1ccccc1)c1ccccc1 [Di(ethylene glycol) dibenzoate]	Caenorhabditis elegans N2	=	200
Cc1cccc(C)c1N	Caenorhabditis elegans N2	>	200
N#Cc1cccnc1	Caenorhabditis elegans N2	=	5
N#Cc1c(Cl)c(Cl)c(Cl)c(C#N)c1Cl	Caenorhabditis elegans N2	=	200
CN(C)C(=O)NC1(c2ccccc2)CCN(CCCC2(c3ccc(Cl)c(Cl)c3)CCCN(C(=O)c3ccccc3)C2)CC1 (stereo in doubt)	Caenorhabditis elegans N2	=	50
